Assay: Inhibition of [3H]hypoxanthine uptake at Trypanosoma brucei brucei 427 H2 transporter expressed in human erythrocytes by fluid scintillation counting
Assay type: cell-based
MEASUREMENT_TYPE: Ki

// field: Ki; key: c1nc2nc(NC3CCCC3)nc(NC3CCCC3)c2[nH]1 ; value = 33.4 µM

---

The reader will find reported IC50 values listed item by item below.
Tested on: Leishmania donovani
Test: Antileishmanial activity against Leishmania donovani MHOMET-67/L82 amastigotes infected in mouse macrophage by reporter dye assay
Assay type: functional, organism-based

Use the examples below as a reference point.
OC[C@H]1O[C@@H](n2cnc3c(NCCC(c4ccccc4)c4ccccc4)nc(NC4CCCC4)nc32)[C@H](O)[C@@H]1O: < 30 µM
OC[C@H]1O[C@@H](n2cnc3c(Nc4ccccc4)nc(NCCOCc4ccccc4)nc32)[C@H](O)[C@@H]1O: < 30 µM
OC(c1cc(C(F)(F)F)nc2c(C(F)(F)F)cccc12)C1CCCCN1 (centres undefined): < 30 µM

Next compound, IC50 to be filled in.
Test item OC[C@H]1O[C@@H](n2cnc3c(Nc4ccccc4)nc(NCCC4CNc5ccccc54)nc32)[C@H](O)[C@@H]1O (some centres undefined) ; Leishmania donovani; reported IC50 was < 30 µM
